binders and their reported Max MFI
Target: T1, CD47 on the surface of cynomolgus monkey B cells (cynomolgus monkey, UniProt A0A5F8AK49 19-323 (rhesus entry))
T1 construct: whole, on cells; also called cynomolgus monkey CD47
Test: FACS on cynomolgus monkey B cells, antibody 66.7 nM
Answer format: numeric, MFI implied, no suffix.

Solved entries:
BINDER	Max MFI (MFI)
Hu-125G4A4m-46 (antibody, V domains shown, Humanized antibody, IgG4 S228P (IgG4P) subtype) VH: QVQLVQSGAEVKKPGSSVKVSCKASGYTFTSYYMHWVRQAPGQGLEWMGYIDPANDYSDYNQNFKDRVTITADKSTRTAYMELTSLRSEDTAVYYCARLGYGQSSPFDYWGQGTTVTVSS VL: DIQMTQSPSSLSASVGDRVTITCKASQDIHNYLSWFQQKPGKAPKSLIYRAKRLVEGVPSRFSGSGSGQDYTLTISSLQPEDFATYYCLQYDELYTFGQGTRLEIK	2520
control antibody Hu5F9 (antibody, V domains shown) VH: QVQLVQSGAEVKKPGASVKVSCKASGYTFTNYNMHWVRQAPGQRLEWMGTIYPGNDDTSYNQKFKDRVTITADTSASTAYMELSSLRSEDTAVYYCARGGYRAMDYWGQGTLVTVSS VL: DIVMTQSPLSLPVTPGEPASISCRSSQSIVYSNGNTYLGWYLQKPGQSPQLLIYKVSNRFSGVPDRFSGSGSGTDFTLKISRVEAEDVGVYYCFQGSHVPYTFGQGTKLEIK	4120
Hu-125G4A4m-45 (antibody, V domains shown, Humanized antibody, IgG4 S228P (IgG4P) subtype) VH: QVQLVQSGAEVKKPGSSVKVSCKASGYTFTSYYMHWVRQAPGQGLEWMGYIDPANDYSDYNQNFKDRVTITADKSTRTAYMELTSLRSEDTAVYYCARLGYGQSSPFDYWGQGTTVTVSS VL: DIQMTQSPSSLSASVGDRVTITCKASQDIHNYLSWFQQKPGKAPKSLIYRAKRLVEGVPSRFSGSGSGTDYTLTISSLQPEDFATYYCLQYDELYTFGQGTRLEIK	2630

Field request: Max MFI | item: Hu-125G4A4m-49 (antibody, V domains shown, Humanized antibody, IgG4 S228P (IgG4P) subtype) VH: QVQLVQSGAEVKKPGSSVKVSCKASGYTFTSYYMHWVRQAPGQGLEWMGYIDPANDYSDYNQNFKDRATLTADKSTRTTYMELTSLRSEDTAVYYCARLGYGQSSPFDYWGQGTTVTVSS VL: DIQMTQSPSSLSASVGDRVTITCKASQDIHNYLSWFQQKPGKAPKSLIYRAKRLVEGVPSRFSGSGSGQDYTLTISSLQPEDFATYYCLQYDELYTFGQGTRLEIK
4080

Field request: Max MFI | item: Hu-125G4A4m-50 (antibody, V domains shown, Humanized antibody, IgG4 S228P (IgG4P) subtype) VH: QVQLVQSGAEVKKPGSSVKVSCKASGYTFTSYYMHWVRQAPGQGLEWMGYIDPANDYSDYNQNFKDRATLTADKSTRTTYMELTSLRSEDTAVYYCARLGYGQSSPFDYWGQGTTVTVSS VL: DIKMTQSPSSLSASVGDRVTITCKASQDIHNYLSWFQQKPGKAPKTLIYRAKRLVEGVPLRFSGSGSGQDYTLTISSLQPEDFATYFCLQYDELYTFGQGTRLEIK
4840

Field request: Max MFI | item: chimeric antibody Ch-125G4-m35 (antibody, V domains shown, Chimeric antibody with human IgG4 (S228P) heavy chain constant region and human kappa light chain constant region; PTM sites mutated (NSS to QSS in the heavy chain, DG to EG in the light chain); also called Ch-125G4m-m35; 125G4A4m) VH: QVQLQQSGTELAKPGASVKMSCKASGYTFTSYYMHWVKQRPGQILEWIGYIDPANDYSDYNQNFKDKATLTADKSSRTTYMQLTSLTSEDSAVYYCARLGYGQSSPFDYWGQGTTLIVSS VL: DIKMTQSPSSMYASVGERVTITCKASQDIHNYLSWFQQKPGKSPKTLIYRAKRLVEGVPLRFSGSGSGQDYSLTISSLEYEDMGIYFCLQYDELYTFGGGTRLEIK
4550
